Study system: RAR alpha (Homo sapiens, UniProt P10276)
Sequence (P10276 183-417 limits assumed): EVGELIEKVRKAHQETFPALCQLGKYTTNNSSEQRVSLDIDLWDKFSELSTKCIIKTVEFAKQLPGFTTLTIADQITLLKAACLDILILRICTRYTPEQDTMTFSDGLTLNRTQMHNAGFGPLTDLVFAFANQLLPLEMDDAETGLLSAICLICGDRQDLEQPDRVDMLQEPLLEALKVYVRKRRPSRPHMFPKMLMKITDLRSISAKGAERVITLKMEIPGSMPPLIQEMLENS
Experiment: Transactivation test (Kd apparent), RAR alpha
Condition label: HeLa cells stably transfected with ERE-βGlob-Luc-SV-Neo reporter and RAR α ER-DBD-puro; luciferase; Schild regression vs reference antagonist; read-out: RAR alpha KD app
pKd: −log10 of the molar value.
Quantity measured: pKd

Molecule: CC1(C)CCC(C)(C)c2cc(-c3cc(-c4ccc(C(=O)O)cc4)ccc3OCCNC3CC3)ccc21 [Compound 67]
pKd: 6.00
//
Molecule: CC1(C)CCC(C)(C)c2cc(-c3cc(-c4ccc(C(=O)O)cc4)ccc3OCCCCN)ccc21 [Compound 75]
pKd: 5.10
//
Molecule: CC1(C)CCC(C)(C)c2cc(-c3cc(-c4ccc(C(=O)O)cc4)ccc3OCCCCNC3CC3)ccc21 [Compound 59]
pKd: 5.10

A: CC(C)NCCCCOc1ccc(-c2ccc(C(=O)O)cc2)cc1-c1ccc2c(c1)C(C)(C)CCC2(C)C [Compound 1]
B: CC1(C)CCC(C)(C)c2cc(-c3cc(-c4ccc(C(=O)O)cc4)ccc3OCCCCCNC3CC3)ccc21 [Compound 69]
Between the entries labelled A and B , which has a larger pKd value on record? // respond with label for picked entry
A
